# testSystem: the molecule itself
# assayName: SEC-MALS; SinR proteins at 5 mg/ml (equivalent to 400 µM), 150 µl on Superdex 200 Increase 10/300 GL, 50 mM Tris-HCl pH 8.0, 250 mM NaCl, 0.5 ml/min; refractive index at 25°C
quantityKind: stoichiometry N
Numbers only.

>  <protein>
SinR^W104L (natural protein, B. subtilis, SinR, Bacillus subtilis, with W104L; allele amplified from chromosomal DNA of the suppressor mutant with primer pair G8/G10, cloned in pET24a (NdeI/EcoRI); Spontaneous suppressor allele isolated in the laboratory from a ymdB mutant; source: E. coli BL21(DE3), purified (heparin Sepharose, size exclusion)) MIGQRIKQYRKEKGYSLSELAEKAGVAKSYLSSIERNLQTNPSIQFLEKVSAVLDVSVHTLLDEKHETEYDGQLDSEWEKLVRDAMTSGVSKKQFREFLDYQKLRKSQKEE

>  <stoichiometry N>
2

$$$$
>  <protein>
SinR^S43A (natural protein, B. subtilis, SinR, Bacillus subtilis, with S43A; allele amplified from chromosomal DNA of the suppressor mutant with primer pair G8/G10, cloned in pET24a (NdeI/EcoRI); Spontaneous suppressor allele isolated in the laboratory from a ymdB mutant; source: E. coli BL21(DE3), purified (heparin Sepharose, size exclusion)) MIGQRIKQYRKEKGYSLSELAEKAGVAKSYLSSIERNLQTNPAIQFLEKVSAVLDVSVHTLLDEKHETEYDGQLDSEWEKLVRDAMTSGVSKKQFREFLDYQKWRKSQKEE

>  <stoichiometry N>
4

$$$$
>  <protein>
SinR^K28T (natural protein, B. subtilis, SinR, Bacillus subtilis, with K28T; allele amplified from chromosomal DNA of the suppressor mutant with primer pair G8/G10, cloned in pET24a (NdeI/EcoRI); Spontaneous suppressor allele isolated in the laboratory from a ymdB mutant; source: E. coli BL21(DE3), purified (heparin Sepharose, size exclusion)) MIGQRIKQYRKEKGYSLSELAEKAGVATSYLSSIERNLQTNPSIQFLEKVSAVLDVSVHTLLDEKHETEYDGQLDSEWEKLVRDAMTSGVSKKQFREFLDYQKWRKSQKEE

>  <stoichiometry N>
4

$$$$
>  <protein>
SinR^A85T (natural protein, B. subtilis, SinR, Bacillus subtilis, with A85T; allele amplified from chromosomal DNA of the suppressor mutant with primer pair G8/G10, cloned in pET24a (NdeI/EcoRI); Spontaneous suppressor allele isolated in the laboratory from a ymdB mutant; source: E. coli BL21(DE3), purified (heparin Sepharose, size exclusion)) MIGQRIKQYRKEKGYSLSELAEKAGVAKSYLSSIERNLQTNPSIQFLEKVSAVLDVSVHTLLDEKHETEYDGQLDSEWEKLVRDTMTSGVSKKQFREFLDYQKWRKSQKEE

>  <stoichiometry N>
4

$$$$
>  <protein>
SinR^W104R (natural protein, B. subtilis, SinR, Bacillus subtilis, with W104R; allele amplified from chromosomal DNA of the suppressor mutant with primer pair G8/G10, cloned in pET24a (NdeI/EcoRI); Spontaneous suppressor allele isolated in the laboratory from a ymdB mutant; source: E. coli BL21(DE3), purified (heparin Sepharose, size exclusion)) MIGQRIKQYRKEKGYSLSELAEKAGVAKSYLSSIERNLQTNPSIQFLEKVSAVLDVSVHTLLDEKHETEYDGQLDSEWEKLVRDAMTSGVSKKQFREFLDYQKRRKSQKEE

>  <stoichiometry N>
2

$$$$

Consider the record given below.
Ask: # get_value(readout='stoichiometry N', item= SinR wild type (natural protein, B. subtilis, SinR, master regulator of biofilm formation, Bacillus subtilis; sinR allele amplified from chromosomal DNA with primer pair G8/G10 and cloned between NdeI and EcoRI of pET24a; monomer printed as 12.85 kDa; The printed monomer mass of 12.85 kDa fits the whole protein of 111 residues; No tag is named and purification was by heparin and size exclusion; also called wild-type SinR; source: E. coli …) MIGQRIKQYRKEKGYSLSELAEKAGVAKSYLSSIERNLQTNPSIQFLEKVSAVLDVSVHTLLDEKHETEYDGQLDSEWEKLVRDAMTSGVSKKQFREFLDYQKWRKSQKEE )
Result: 4

Measured values drawn from paper PMC6123443 for this set.
